Where do these numbers come from? They come from patent US20070244048A1.

Target: T1, rat NMUR1-ATG (rat, UniProt Q9JJI5 1-425)
T1 sequence (looked up): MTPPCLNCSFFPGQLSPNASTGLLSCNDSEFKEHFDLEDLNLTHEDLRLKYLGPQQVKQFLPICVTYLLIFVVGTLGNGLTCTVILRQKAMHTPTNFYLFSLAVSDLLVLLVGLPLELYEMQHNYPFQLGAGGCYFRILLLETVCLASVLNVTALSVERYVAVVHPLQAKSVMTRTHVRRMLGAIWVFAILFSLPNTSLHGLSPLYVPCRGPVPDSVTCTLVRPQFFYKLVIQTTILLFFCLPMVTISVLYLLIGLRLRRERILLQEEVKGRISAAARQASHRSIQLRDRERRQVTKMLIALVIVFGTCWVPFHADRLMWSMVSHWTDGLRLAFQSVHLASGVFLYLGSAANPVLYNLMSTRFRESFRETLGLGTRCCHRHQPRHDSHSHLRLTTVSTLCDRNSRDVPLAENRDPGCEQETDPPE
Assay: cell-based or functional assay
Starred links: 1 amine or outer side, 2 acyl side, 3 side chain; linkers in the order of their positions; H or OH if unused. Non-standard residues stand in square brackets, D forms with d. *: point of attachment. Ttds = 1-amino-4,7,10-trioxa-13-tridecanamine succinimic acid spacer, O=C(CCC(=O)[*:2])NCCCOCCOCCOCCCN[*:1]; (PEG)2 40 kDa = branched PEG of 40 kDa linked via the Cys side-chain thiol (code C2 = Cys(PEG)2 40 kDa); Cholesteroyl = cholesterol linked to a cysteine residue via the side-chain thiol; Succinimide(1-Et,3-yl) = CCN1C(=O)CC(*)C1=O; Palmitoyl = CCCCCCCCCCCCCCCC(=O)*
Hi! Just check whether EC50 (FLIPR) is below 10 nM. Below gives fulfilled, equal or above gives not fulfilled.

Data request: Hello, is EC50 (FLIPR) of the following binder strictly smaller than 10 nM? Ac-C(Succinimide(1-Et,3-yl))C(Succinimide(1-Et,3-yl))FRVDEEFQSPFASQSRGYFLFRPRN-NH2 [NMU22]
Data returned: not fulfilled

Data request: Hello, is EC50 (FLIPR) of the following binder strictly smaller than 10 nM? Ac-C(Succinimide(1-Et,3-yl))ASQSRGYFLFRPRN-NH2 (SMILES CCN1C(=O)CC(SC[C@H](NC(C)=O)C(=O)N[C@@H](C)C(=O)N[C@@H](CO)C(=O)N[C@@H](CCC(N)=O)C(=O)N[C@@H](CO)C(=O)N[C@@H](CCCNC(=N)N)C(=O)NCC(=O)N[C@@H](Cc2ccc(O)cc2)C(=O)N[C@@H](Cc2ccccc2)C(=O)N[C@@H](CC(C)C)C(=O)N[C@@H](Cc2ccccc2)C(=O)N[C@@H](CCCNC(=N)N)C(=O)N2CCC[C@H]2C(=O)N[C@@H](CCCNC(=N)N)C(=O)N[C@@H](CC(N)=O)C(N)=O)C1=O) [NMU17]
Data returned: fulfilled

Data request: Hello, is EC50 (FLIPR) of the following binder strictly smaller than 10 nM? Ac-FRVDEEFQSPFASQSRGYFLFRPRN-NH2 [NMU2]
Data returned: fulfilled

Data request: Hello, is EC50 (FLIPR) of the following binder strictly smaller than 10 nM? Ac-C((PEG)2 40 kDa)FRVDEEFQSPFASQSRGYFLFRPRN-NH2 [NMU9]
Data returned: fulfilled

Data request: Hello, is EC50 (FLIPR) of the following binder strictly smaller than 10 nM? Palmitoyl-C(Succinimide(1-Et,3-yl))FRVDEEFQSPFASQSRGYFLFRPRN-NH2 [NMU24]
Data returned: not fulfilled

Data request: Hello, is EC50 (FLIPR) of the following binder strictly smaller than 10 nM? Palmitoyl-C((PEG)2 40 kDa)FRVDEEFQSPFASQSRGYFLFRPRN-NH2 [NMU25]
Data returned: not fulfilled

Data request: Hello, is EC50 (FLIPR) of the following binder strictly smaller than 10 nM? Ac-C(Cholesteroyl)GYFLFRPRN-NH2 [NMU11]
Data returned: not fulfilled

Data request: Hello, is EC50 (FLIPR) of the following binder strictly smaller than 10 nM? Ac-C((PEG)2 40 kDa)[Ttds]FLFRPRN-NH2 [NMU16]
Data returned: not fulfilled

Data request: Hello, is EC50 (FLIPR) of the following binder strictly smaller than 10 nM? Ac-C(Cholesteroyl)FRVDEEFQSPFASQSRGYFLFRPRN-NH2 [NMU10]
Data returned: not fulfilled

Data request: Hello, is EC50 (FLIPR) of the following binder strictly smaller than 10 nM? Ac-C((PEG)2 40 kDa)ASQSRGYFLFRPRN-NH2 [NMU18]
Data returned: not fulfilled

Data request: Hello, is EC50 (FLIPR) of the following binder strictly smaller than 10 nM? Ac-C(Succinimide(1-Et,3-yl))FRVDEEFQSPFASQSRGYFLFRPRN-NH2 [NMU8]
Data returned: not fulfilled

Data request: Hello, is EC50 (FLIPR) of the following binder strictly smaller than 10 nM? Ac-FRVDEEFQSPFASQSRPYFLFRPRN-NH2 [NMU5]
Data returned: fulfilled
